Where do the numbers come from? From patent US10800813.

Provide the reported pKi of each item.
tgt: T1, human plasma Kallikrein (human, UniProt P03952 20-638, limits assumed)
T1 construct: also called hPK; human PK
method_description: enzyme inhibition assay
Numbered stars: 1 amine (or outer) side, 2 acyl side, 3 side chain; on linkers, the order of the positions; unused ones are H or OH. Bridge positions count the residues as written; N and C are the ends. Ends that are not written are not given here. TBMB = c1c(C[*:1])cc(C[*:3])cc1C[*:2]
Numbers only, as −log10 of the molar value.

>  <binder>
ACFYKCRVNCA (linker 2-6-10 via TBMB; not fully specified (N-terminus, C-terminus), also called PK120) [06-71]

>  <observed_property>
pKi

>  <numeric_value>
7.82

$$$$

Hi team, please reply with pKi for each item in this list.
1. ACFKQCRVNCA (linker 2-6-10 via TBMB, also called PK118) [06-94]
2. ACFKNCRVNCA (linker 2-6-10 via TBMB, also called PK119) [3B2]
3. ACFDPCRVICA (linker 2-6-10 via TBMB, also called PK124) [3B9]

## Result
9.15
8.05
7.04
